- tgt: Mitochondrial complex II; succinate dehydrogenase (Septoria tritici, UniProt G4XX53+O42772)
- Sequence (G4XX53 whole entry): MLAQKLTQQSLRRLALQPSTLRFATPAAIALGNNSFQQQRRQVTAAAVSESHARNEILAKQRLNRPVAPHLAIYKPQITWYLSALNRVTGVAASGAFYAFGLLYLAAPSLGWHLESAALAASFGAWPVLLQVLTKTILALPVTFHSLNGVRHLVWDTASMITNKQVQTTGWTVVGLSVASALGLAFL
- Sequence (O42772 whole entry): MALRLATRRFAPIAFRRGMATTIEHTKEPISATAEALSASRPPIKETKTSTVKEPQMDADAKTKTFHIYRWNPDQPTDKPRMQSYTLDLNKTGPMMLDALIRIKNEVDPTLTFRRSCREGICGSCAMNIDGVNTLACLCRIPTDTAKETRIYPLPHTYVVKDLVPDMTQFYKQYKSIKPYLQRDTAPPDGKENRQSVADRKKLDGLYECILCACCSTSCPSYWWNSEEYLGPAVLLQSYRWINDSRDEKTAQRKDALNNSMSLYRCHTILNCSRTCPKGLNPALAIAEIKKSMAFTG
- method-summary: Inhibition of Septoria nodorum succinate dehydrogenase and Qi site of mitochondrial respiratory chain complex 3 by FMET2-3 assay
reported-metric: log10(IC50) (log10 of the value in nM)

> print(dat)
                                   molecule  reported.metric  result.value
1  O=C(Nc1ccc(Oc2ccccc2)cc1)c1ccc2c[nH]nc2c1O      log10(IC50)          2.10
2  O=C(Nc1ccc(Oc2ccc(C(F)(F)F)cc2)cc1)c1sc2c[nH]nc2c1O      log10(IC50)          1.41
3  O=C(Nc1ccc(Oc2ccc(C(F)(F)F)cc2)cc1)c1ccc2[nH]nnc2c1O      log10(IC50)          0.70
4  O=C(Nc1ccc(Oc2ccc(C(F)(F)F)cc2)cc1)c1ccc2cn[nH]c2c1O      log10(IC50)          1.41
5  O=C(Nc1ccc(Oc2ccccc2)cc1)c1ccc2nn[nH]c2c1O      log10(IC50)          1.51
6  CCCCCC[C@H]1C(=O)O[C@H](C)[C@H](NC(=O)c2cccc(NC=O)c2O)C(=O)O[C@@H](C)[C@@H]1OC(=O)CC(C)C [ANTIMYCIN A]      log10(IC50)          0.30
